# assayed_target: Mitogen-activated protein kinase kinase kinase 14 (Homo sapiens)
# Sequence (Q99558 whole entry): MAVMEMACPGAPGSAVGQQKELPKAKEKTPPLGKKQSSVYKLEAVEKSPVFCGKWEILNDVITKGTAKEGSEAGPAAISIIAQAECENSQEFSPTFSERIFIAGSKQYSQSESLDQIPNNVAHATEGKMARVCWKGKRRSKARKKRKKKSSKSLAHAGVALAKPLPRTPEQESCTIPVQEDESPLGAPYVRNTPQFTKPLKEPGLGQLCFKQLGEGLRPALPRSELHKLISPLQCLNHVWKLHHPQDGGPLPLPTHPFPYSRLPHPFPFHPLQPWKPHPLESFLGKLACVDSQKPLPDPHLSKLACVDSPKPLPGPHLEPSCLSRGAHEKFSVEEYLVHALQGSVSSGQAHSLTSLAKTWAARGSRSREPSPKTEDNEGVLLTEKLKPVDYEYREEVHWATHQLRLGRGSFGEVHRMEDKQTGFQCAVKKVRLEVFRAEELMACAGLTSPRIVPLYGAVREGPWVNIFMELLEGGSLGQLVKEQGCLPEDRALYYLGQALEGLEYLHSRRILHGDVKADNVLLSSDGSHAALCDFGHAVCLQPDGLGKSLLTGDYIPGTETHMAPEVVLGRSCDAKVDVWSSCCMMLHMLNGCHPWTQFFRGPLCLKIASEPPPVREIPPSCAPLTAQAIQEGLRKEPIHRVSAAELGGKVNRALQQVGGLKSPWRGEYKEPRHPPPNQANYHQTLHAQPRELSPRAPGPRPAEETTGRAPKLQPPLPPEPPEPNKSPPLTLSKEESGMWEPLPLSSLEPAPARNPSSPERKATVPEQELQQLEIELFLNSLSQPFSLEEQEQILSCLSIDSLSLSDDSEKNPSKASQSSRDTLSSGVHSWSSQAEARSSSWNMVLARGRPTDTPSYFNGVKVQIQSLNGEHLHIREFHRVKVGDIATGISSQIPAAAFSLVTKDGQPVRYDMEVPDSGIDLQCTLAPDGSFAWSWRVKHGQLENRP
# assay_details: Inhibition of auto-phosphorylation of recombinant human NF-kappaB-inducing kinase (NIK/MAP3K14) activity: NIK/MAP3K14 auto-phosphorylation activity was measured using the AlphaScreen® (αscreen) format (Perkin Elmer). All compounds tested were dissolved in dimethyl sulfoxide (DMSO) and further dilutions were made in assay buffer. Final DMSO concentration was 1% (v/v) in assays. Assay buffer was 50 mM Tris pH 7.5 containing 1 mM EGTA (ethylene glycol tetraacetic acid), 1 mM DTT (dithiothreitol), 0.1 mM Na3VO4, 5 mM MgCl2, 0.01% Tween® 20. Assays were carried out in 384 well Alphaplates (Perkin Elmer). Incubations consisted of compound, 25 microM Adenosine-5′-triphosphate (ATP), and 0.2 nM NIK/MAP3K14. Incubations were initiated by addition of GST-tagged NIK/MAP3K14 enzyme, carried out for 1 h at 25° C. and terminated by addition of stop buffer containing anti-phospho-IKK Ser176/180 antibody. Protein A Acceptor and Glutathione-Donor beads were added before reading using an EnVision® Multilabel Plate Reader (Perkin Elmer). Signal obtained in the wells containing blank samples was subtracted from all other wells and IC50's were determined by fitting a sigmoidal curve to % inhibition of control versus Log10 compound concentration.
pIC50: −log10 of the molar value.
reported_metric: pIC50

>  <compound>
COCCCn1nc(C)cc1Nc1nccc(-c2cc(C#N)c3c(c2)[C@@](C)(CO)CN3)n1

>  <assayed_target>
Mitogen-activated protein kinase kinase kinase 14 (Homo sapiens)

>  <pIC50>
8.40

$$$$

P. Cc1nn(C)cc1Nc1nccc(-c2cc(C#N)c3c(c2)C(C)(CO)CN3)n1 (stereo not drawn)
Q. Cc1cc(Nc2nccc(-c3cc(C#N)c4c(c3)C(C)(CO)CN4)n2)n(CCN(C)C)n1 (stereo not drawn)
-- ask Which gives the smaller pIC50 number: P or Q ? Field: selected label. Fill in the label of the entry you choose.
-- reply Q
